Target: T1, human A-beta(1-40) peptide, monomeric (BAM) (human, biotin at the C-terminus in capture ELISA, SPR and TR-FRET; not biotinylated where coated directly (Example 7))
T1 construct: synthetic peptide (Anaspec), TFA/HFIP treated to give monomer; also called monomeric A-beta
Experiment: ABII002 TR-FRET competition assay
endpoint_name: pIC50
pIC50 (log units): -log10 of the concentration in mol/L.

Query :: Indicate its recorded pIC50; the binder in question is ABII322-PEG40 (designed binder, PEG40 on the Cys at position 14 of the 27GS linker, 059-27GSC-035; also called PEGylated ABII322 VHH construct; biparatopic PEGylated VHH ABII322) VQLLESGGGLVQPGGSLRLSCAASGRTFNNYNMGWFRQAPGKGREFVAAVSRSGVSTYYADSVKGRFTISRDNSKNTVYLQMNSLRPEDTAVYYCAAAYRGTAINVRRSYSSWGQGTLVTVSSGGGSGGGGSGGGGCGGGGSGGGGSGGGEVQLLESGGGLVQPGGSLRLSCVHSGPTFRTDTMGWFRQAPGKGREFVAAVTWNSGRINYADSVKGRFTISRDNSKNTAYLQMNSLRPEDTAVYYCAAHRFVVGGNRVEDWRYWGQGTLVTVSS
Result :: 9.85

Query :: Identify pIC50 associated with the binder ABII059-27GS-ABII035-MSA (designed binder, built from the printed name; not shown: mouse serum albumin) EVQLLESGGGLVQPGGSLRLSCAASGRTFNNYNMGWFRQAPGKGREFVAAVSRSGVSTYYADSVKGRFTISRDNSKNTVYLQMNSLRPEDTAVYYCAAAYRGTAINVRRSYSSWGQGTLVTVSSGGGSGGGGSGGGGSGGGGSGGGGSGGGEVQLLESGGGLVQPGGSLRLSCVHSGPTFRTDTMGWFRQAPGKGREFVAAVTWNSGRINYADSVKGRFTISRDNSKNTAYLQMNSLRPEDTAVYYCAAHRFVVGGNRVEDWRYWGQGTLVTVSS
Result :: 9.72

Query :: Name the recorded pIC50 of the item ABII315-PEG20 (designed binder, PEG20 on the Cys at position 5 of the 9GS linker, 059-9GSC-035; purified as His6-tagged construct before PEGylation) EVQLLESGGGLVQPGGSLRLSCAASGRTFNNYNMGWFRQAPGKGREFVAAVSRSGVSTYYADSVKGRFTISRDNSKNTVYLQMNSLRPEDTAVYYCAAAYRGTAINVRRSYSSWGQGTLVTVSSGGGGCGGGSEVQLLESGGGLVQPGGSLRLSCVHSGPTFRTDTMGWFRQAPGKGREFVAAVTWNSGRINYADSVKGRFTISRDNSKNTAYLQMNSLRPEDTAVYYCAAHRFVVGGNRVEDWRYWGQGTLVTVSS in your answer.
Result :: 9.89

Query :: Provide measured pIC50 value, entry: ABII323-PEG40 (designed binder, PEG40 on the Cys at position 15 of the 35GS linker, 059-35GSC-035) VQLLESGGGLVQPGGSLRLSCAASGRTFNNYNMGWFRQAPGKGREFVAAVSRSGVSTYYADSVKGRFTISRDNSKNTVYLQMNSLRPEDTAVYYCAAAYRGTAINVRRSYSSWGQGTLVTVSSGGGGSGGGGSGGGGCGGGGSGGGGSGGGGSGGGGSEVQLLESGGGLVQPGGSLRLSCVHSGPTFRTDTMGWFRQAPGKGREFVAAVTWNSGRINYADSVKGRFTISRDNSKNTAYLQMNSLRPEDTAVYYCAAHRFVVGGNRVEDWRYWGQGTLVTVSS
Result :: 9.74

Query :: For ABII035 (VHH, humanized variant of ABII002) VHH: EVQLLESGGGLVQPGGSLRLSCVHSGPTFRTDTMGWFRQAPGKGREFVAAVTWNSGRINYADSVKGRFTISRDNSKNTAYLQMNSLRPEDTAVYYCAAHRFVVGGNRVEDWRYWGQGTLVTVSS , write its pIC50.
Result :: 8.46

Query :: Return pIC50 for the following binder: ABII059-27GS-ABII035-MSA_D3 (designed binder, built from the printed name; not shown: domain III of mouse serum albumin) EVQLLESGGGLVQPGGSLRLSCAASGRTFNNYNMGWFRQAPGKGREFVAAVSRSGVSTYYADSVKGRFTISRDNSKNTVYLQMNSLRPEDTAVYYCAAAYRGTAINVRRSYSSWGQGTLVTVSSGGGSGGGGSGGGGSGGGGSGGGGSGGGEVQLLESGGGLVQPGGSLRLSCVHSGPTFRTDTMGWFRQAPGKGREFVAAVTWNSGRINYADSVKGRFTISRDNSKNTAYLQMNSLRPEDTAVYYCAAHRFVVGGNRVEDWRYWGQGTLVTVSS
Result :: 10.00
